In this section, each of the binders is paired with its reported MFI.
- target: T1, human TMEM106B (human, UniProt Q9NUM4 2-274)
- T1 construct: full-length, transiently expressed on HEK293 cells, or natively expressed on HeLa, U251 and A549 cells (the cell is named under assay); also the source of the Pepscan peptides; also called huTMEM106B; huTMEM
- protocolText: FACS A549;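 also: flow cytometry of cells incubated on ice for 1 h with hybridoma supernatant or purified antibody at 10 µg/mL, dead propidium iodide-positive cells gated out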

- binder: "TM-2 (antibody, V domains shown) VH: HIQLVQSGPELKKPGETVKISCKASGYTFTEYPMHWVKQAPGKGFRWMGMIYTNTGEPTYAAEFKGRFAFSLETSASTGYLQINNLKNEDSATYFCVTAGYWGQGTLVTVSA VL: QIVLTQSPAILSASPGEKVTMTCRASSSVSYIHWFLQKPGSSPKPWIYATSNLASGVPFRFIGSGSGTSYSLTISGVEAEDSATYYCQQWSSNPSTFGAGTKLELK"
  MFI [MFI]: 1890
- binder: "TM-25 (antibody, V domains shown) VH: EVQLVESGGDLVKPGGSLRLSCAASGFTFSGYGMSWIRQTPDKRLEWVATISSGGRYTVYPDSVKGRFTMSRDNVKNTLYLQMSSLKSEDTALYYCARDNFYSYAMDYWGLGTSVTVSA VL: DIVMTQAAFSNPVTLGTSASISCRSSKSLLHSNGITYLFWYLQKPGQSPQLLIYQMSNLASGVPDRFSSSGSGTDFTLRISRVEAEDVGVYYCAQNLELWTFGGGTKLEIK"
  MFI [MFI]: 1700
- binder: "TM-22 (antibody, V domains shown) VH: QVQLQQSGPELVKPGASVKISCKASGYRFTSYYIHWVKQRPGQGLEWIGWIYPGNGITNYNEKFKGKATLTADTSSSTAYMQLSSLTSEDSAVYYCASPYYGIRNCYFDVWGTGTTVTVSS VL: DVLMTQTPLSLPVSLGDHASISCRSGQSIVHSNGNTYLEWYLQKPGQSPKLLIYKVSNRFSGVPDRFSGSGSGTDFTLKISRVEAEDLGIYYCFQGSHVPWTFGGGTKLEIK"
  MFI [MFI]: 1570
- binder: "TM-16 (antibody, V domains shown) VH: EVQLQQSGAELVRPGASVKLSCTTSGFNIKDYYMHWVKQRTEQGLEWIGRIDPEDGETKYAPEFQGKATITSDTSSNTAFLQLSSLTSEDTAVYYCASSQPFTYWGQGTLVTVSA VL: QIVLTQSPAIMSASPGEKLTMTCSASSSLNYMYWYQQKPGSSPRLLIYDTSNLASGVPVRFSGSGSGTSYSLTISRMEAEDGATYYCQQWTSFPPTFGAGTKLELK"
  MFI [MFI]: 605
- binder: "TM-1 (antibody, V domains shown) VH: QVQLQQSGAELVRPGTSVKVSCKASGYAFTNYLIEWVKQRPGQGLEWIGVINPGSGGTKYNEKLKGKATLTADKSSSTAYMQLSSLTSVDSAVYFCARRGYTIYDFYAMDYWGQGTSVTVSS VL: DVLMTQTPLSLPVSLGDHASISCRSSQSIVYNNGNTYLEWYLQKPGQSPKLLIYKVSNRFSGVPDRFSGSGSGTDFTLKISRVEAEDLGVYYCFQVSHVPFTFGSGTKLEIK"
  MFI [MFI]: 1460

The reported numbers originate from patent US20200339680A1.
